Values were extracted from paper PMC7076352.

Target: CYP1A2 (Rattus norvegicus)
Sequence (P04799 whole entry): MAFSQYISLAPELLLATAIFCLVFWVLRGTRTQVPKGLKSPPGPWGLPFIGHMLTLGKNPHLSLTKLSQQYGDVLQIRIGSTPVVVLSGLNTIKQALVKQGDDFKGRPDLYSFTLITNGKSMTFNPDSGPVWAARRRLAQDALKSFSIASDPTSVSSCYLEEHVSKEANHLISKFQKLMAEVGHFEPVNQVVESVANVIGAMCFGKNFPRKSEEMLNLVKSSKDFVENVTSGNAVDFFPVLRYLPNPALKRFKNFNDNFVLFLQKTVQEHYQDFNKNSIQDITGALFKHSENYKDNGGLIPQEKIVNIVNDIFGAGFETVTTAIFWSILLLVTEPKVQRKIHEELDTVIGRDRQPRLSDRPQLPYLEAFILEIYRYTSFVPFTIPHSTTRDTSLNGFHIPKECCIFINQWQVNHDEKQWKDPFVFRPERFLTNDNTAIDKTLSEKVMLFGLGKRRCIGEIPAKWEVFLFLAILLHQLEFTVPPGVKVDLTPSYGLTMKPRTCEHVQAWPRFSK
Assay: In vitro cocktail CYP450 activity assay in rat liver microsomes, CYP1A2 (phenacetin probe)
Settings: at the Cmax level in rat plasma, calculated from the dose–response curve
outcome_measure: Response (% control) CYP1A2
One number for each entry, in % control.

CC(C)=CCC[C@](C)(O[C@@H]1O[C@H](CO)[C@@H](O)[C@H](O)[C@H]1O)[C@H]1CC[C@]2(C)[C@@H]1[C@H](O)C[C@@H]1[C@@]3(C)CC[C@H](O[C@@H]4O[C@H](CO)[C@@H](O)[C@H](O)[C@H]4O[C@@H]4O[C@H](CO)[C@@H](O)[C@H](O)[C@H]4O)C(C)(C)[C@@H]3CC[C@]12C [GRd, ginsenoside Rd]    71.33
CC(C)=CCC[C@](C)(O[C@@H]1O[C@H](CO)[C@@H](O)[C@H](O)[C@H]1O)[C@H]1CC[C@]2(C)[C@@H]1[C@H](O)C[C@@H]1[C@@]3(C)CC[C@H](O)C(C)(C)[C@@H]3[C@@H](O[C@@H]3O[C@H](CO)[C@@H](O)[C@H](O)[C@H]3O[C@@H]3O[C@@H](C)[C@H](O)[C@@H](O)[C@H]3O)C[C@]12C [GRe, ginsenoside Re]    99.99
CC(C)=CCC[C@](C)(O[C@@H]1O[C@H](CO)[C@@H](O)[C@H](O)[C@H]1O)[C@H]1CC[C@]2(C)[C@@H]1[C@H](O)C[C@@H]1[C@@]3(C)CC[C@H](O)C(C)(C)[C@@H]3[C@@H](O[C@@H]3O[C@H](CO)[C@@H](O)[C@H](O)[C@H]3O)C[C@]12C [GRg1, ginsenoside Rg1]    98.46

Now consider the entry below.
## Task Bench note: what Response (% control) CYP1A2 did CC(C)=CCC[C@](C)(O[C@@H]1O[C@H](CO[C@@H]2O[C@H](CO)[C@@H](O)[C@H](O)[C@H]2O)[C@@H](O)[C@H](O)[C@H]1O)[C@H]1CC[C@]2(C)[C@@H]1[C@H](O)C[C@@H]1[C@@]3(C)CC[C@H](O[C@@H]4O[C@H](CO)[C@@H](O)[C@H](O)[C@H]4O[C@@H]4O[C@H](CO)[C@@H](O)[C@H](O)[C@H]4O)C(C)(C)[C@@H]3CC[C@]12C [GRb1, ginsenoside Rb1] show?
## Result 79.30

====

Task for the reader: assign each of the following molecules its reported concentration at 3 h.
Assay: in vivo
Design: species or system Sprague-Dawley (SD) rats
Settings: Sprague-Dawley, rat, plasma, po, 60 mg·kg^−1
Give bare numbers, in ng/mL.

Examples from the recorded data:
CC(C)=CCC[C@](C)(O[C@@H]1O[C@H](CO)[C@@H](O)[C@H](O)[C@H]1O)[C@H]1CC[C@]2(C)[C@@H]1[C@H](O)C[C@@H]1[C@@]3(C)CC[C@H](O)C(C)(C)[C@@H]3[C@@H](O[C@@H]3O[C@H](CO)[C@@H](O)[C@H](O)[C@H]3O)C[C@]12C [GRg1, ginsenoside Rg1]    0.49
CC(C)=CCC[C@](C)(O[C@@H]1O[C@H](CO)[C@@H](O)[C@H](O)[C@H]1O)[C@H]1CC[C@]2(C)[C@@H]1[C@H](O)C[C@@H]1[C@@]3(C)CC[C@H](O)C(C)(C)[C@@H]3[C@@H](O[C@@H]3O[C@H](CO)[C@@H](O)[C@H](O)[C@H]3O[C@@H]3OC[C@@H](O)[C@H](O)[C@H]3O)C[C@]12C [NGR1, notoginsenoside R1]    0.46

Query molecule follows.
## Task What value of measured concentration at 3 h is listed for CC(C)=CCC[C@](C)(O[C@@H]1O[C@H](CO)[C@@H](O)[C@H](O)[C@H]1O)[C@H]1CC[C@]2(C)[C@@H]1[C@H](O)C[C@@H]1[C@@]3(C)CC[C@H](O)C(C)(C)[C@@H]3[C@@H](O[C@@H]3O[C@H](CO)[C@@H](O)[C@H](O)[C@H]3O[C@@H]3O[C@@H](C)[C@H](O)[C@@H](O)[C@H]3O)C[C@]12C [GRe, ginsenoside Re] ?
## Result 0.27

====

Tested on: CYP2D6
Experiment: in vitro
Conditions: Sprague-Dawley, rat, microsomes, pH 7.4, IC50 CYP2D6
Checkbox rule: IC50 at 15 min lower than 60 µM = true (1); IC50 at 15 min not lower than 60 µM = false (0).

For orientation, consider the following solved cases.
CC(C)=CCC[C@](C)(O[C@@H]1O[C@H](CO)[C@@H](O)[C@H](O)[C@H]1O)[C@H]1CC[C@]2(C)[C@@H]1[C@H](O)C[C@@H]1[C@@]3(C)CC[C@H](O)C(C)(C)[C@@H]3[C@@H](O[C@@H]3O[C@H](CO)[C@@H](O)[C@H](O)[C@H]3O[C@@H]3O[C@@H](C)[C@H](O)[C@@H](O)[C@H]3O)C[C@]12C [GRe, ginsenoside Re]    false (0)
CC(C)=CCC[C@](C)(O[C@@H]1O[C@H](CO)[C@@H](O)[C@H](O)[C@H]1O)[C@H]1CC[C@]2(C)[C@@H]1[C@H](O)C[C@@H]1[C@@]3(C)CC[C@H](O)C(C)(C)[C@@H]3[C@@H](O[C@@H]3O[C@H](CO)[C@@H](O)[C@H](O)[C@H]3O[C@@H]3OC[C@@H](O)[C@H](O)[C@H]3O)C[C@]12C [NGR1, notoginsenoside R1]    true (1)

## Task Hello, is IC50 at 15 min of the following compound strictly smaller than 60 µM? CC(C)=CCC[C@](C)(O[C@@H]1O[C@H](CO[C@@H]2O[C@H](CO)[C@@H](O)[C@H](O)[C@H]2O)[C@@H](O)[C@H](O)[C@H]1O)[C@H]1CC[C@]2(C)[C@@H]1[C@H](O)C[C@@H]1[C@@]3(C)CC[C@H](O[C@@H]4O[C@H](CO)[C@@H](O)[C@H](O)[C@H]4O[C@@H]4O[C@H](CO)[C@@H](O)[C@H](O)[C@H]4O)C(C)(C)[C@@H]3CC[C@]12C [GRb1, ginsenoside Rb1]
## Result true (1)

## Task Please let me know if CC(C)=CCC[C@](C)(O[C@@H]1O[C@H](CO)[C@@H](O)[C@H](O)[C@H]1O)[C@H]1CC[C@]2(C)[C@@H]1[C@H](O)C[C@@H]1[C@@]3(C)CC[C@H](O[C@@H]4O[C@H](CO)[C@@H](O)[C@H](O)[C@H]4O[C@@H]4O[C@H](CO)[C@@H](O)[C@H](O)[C@H]4O)C(C)(C)[C@@H]3CC[C@]12C [GRd, ginsenoside Rd] shows IC50 at 15 min below 60 µM.
## Result false (0)

## Task State whether 60 µM exceeds IC50 at 15 min recorded for CC(C)=CCC[C@](C)(O[C@@H]1O[C@H](CO)[C@@H](O)[C@H](O)[C@H]1O)[C@H]1CC[C@]2(C)[C@@H]1[C@H](O)C[C@@H]1[C@@]3(C)CC[C@H](O)C(C)(C)[C@@H]3[C@@H](O[C@@H]3O[C@H](CO)[C@@H](O)[C@H](O)[C@H]3O)C[C@]12C [GRg1, ginsenoside Rg1] .
## Result true (1)

====

For each record, write down the corresponding concentration at 0.5 h.
Assay: in vivo
Set-up: species or system Sprague-Dawley (SD) rats
Settings: Sprague-Dawley, plasma; 0.5 h after oral CNP, rat
One number for each entry, in ng/mL.

Example entries and their recorded answers appear below.
CC(C)=CCC[C@](C)(O[C@@H]1O[C@H](CO)[C@@H](O)[C@H](O)[C@H]1O)[C@H]1CC[C@]2(C)[C@@H]1[C@H](O)C[C@@H]1[C@@]3(C)CC[C@H](O)C(C)(C)[C@@H]3[C@@H](O[C@@H]3O[C@H](CO)[C@@H](O)[C@H](O)[C@H]3O[C@@H]3OC[C@@H](O)[C@H](O)[C@H]3O)C[C@]12C [NGR1, notoginsenoside R1]    0.53
CC(C)=CCC[C@](C)(O[C@@H]1O[C@H](CO)[C@@H](O)[C@H](O)[C@H]1O)[C@H]1CC[C@]2(C)[C@@H]1[C@H](O)C[C@@H]1[C@@]3(C)CC[C@H](O)C(C)(C)[C@@H]3[C@@H](O[C@@H]3O[C@H](CO)[C@@H](O)[C@H](O)[C@H]3O)C[C@]12C [GRg1, ginsenoside Rg1]    0.53

Batch request: concentration at 0.5 h for each of the following molecules.
1. CC(C)=CCC[C@](C)(O[C@@H]1O[C@H](CO)[C@@H](O)[C@H](O)[C@H]1O)[C@H]1CC[C@]2(C)[C@@H]1[C@H](O)C[C@@H]1[C@@]3(C)CC[C@H](O[C@@H]4O[C@H](CO)[C@@H](O)[C@H](O)[C@H]4O[C@@H]4O[C@H](CO)[C@@H](O)[C@H](O)[C@H]4O)C(C)(C)[C@@H]3CC[C@]12C [GRd, ginsenoside Rd]
2. CC(C)=CCC[C@](C)(O[C@@H]1O[C@H](CO[C@@H]2O[C@H](CO)[C@@H](O)[C@H](O)[C@H]2O)[C@@H](O)[C@H](O)[C@H]1O)[C@H]1CC[C@]2(C)[C@@H]1[C@H](O)C[C@@H]1[C@@]3(C)CC[C@H](O[C@@H]4O[C@H](CO)[C@@H](O)[C@H](O)[C@H]4O[C@@H]4O[C@H](CO)[C@@H](O)[C@H](O)[C@H]4O)C(C)(C)[C@@H]3CC[C@]12C [GRb1, ginsenoside Rb1]
3. CC(C)=CCC[C@](C)(O[C@@H]1O[C@H](CO)[C@@H](O)[C@H](O)[C@H]1O)[C@H]1CC[C@]2(C)[C@@H]1[C@H](O)C[C@@H]1[C@@]3(C)CC[C@H](O)C(C)(C)[C@@H]3[C@@H](O[C@@H]3O[C@H](CO)[C@@H](O)[C@H](O)[C@H]3O[C@@H]3O[C@@H](C)[C@H](O)[C@@H](O)[C@H]3O)C[C@]12C [GRe, ginsenoside Re]

## Result
12.5
36.1
0.33
